test: Water retention property test 3 (long term); type: physicochemical; settings: 80 wt % aqueous solution, 1.0 g; 40° C. and 25% RH; 0~24 h
Amount of moisture reduction in 0 to 24 h: recorded values
Form entry: value (mg) — number only.

Example results:
Compound: OCC(O)CO
Result value: 24.6
--
Compound: CS(=O)(=O)O.NC(CO)CO
Result value: 6.5
--
Compound: CCCC[N+](CCCC)(CCCC)CCCC.[Br-]
Result value: 49.1
--
Compound: CC(O)C(=O)O.NC(CO)CO (centres unmarked)
Result value: 6.7

Could you now look at the following compound, please?
Endpoint output: Amount of moisture reduction in 0 to 24 h of `CCCCn1cc[n+](C)c1.F[B-](F)(F)F` . Value? 64.3

----------
assay: Water retention property test 2 (hydrates); type: physicochemical; settings: hydrate (anhydrides: aqueous solution at mono- to trihydrate concentration); before the test
Entries and their Pre-test moisture rate values follow.
Your answer is read as %, so omit the unit and give the number.

Compound: CC(O)C(=O)[O-].CCCC[N+](CCCC)(CCCC)CCCC [Working example C102]
Pre-test moisture rate (%): 14.0
//
Compound: O=C(O)CO.OCCNCCO [Working example C64]
Pre-test moisture rate (%): 16.6
//
Compound: NCC(O)C(O)C(O)C(O)CO.O=C1OC(C(O)CO)C(O)=C1O (stereo not shown) [Working example C109]
Pre-test moisture rate (%): 9.2
//
Compound: CCCCn1cc[n+](C)c1.F[B-](F)(F)F [Comparative example C9]
Pre-test moisture rate (%): 19.3
//
Compound: C[N+](C)(C)CCO.[Cl-] [Working example C96]
Pre-test moisture rate (%): 11.4

Item CC(O)C(=O)O.OCCN(CCO)CCO [Working example C66] has what recorded Pre-test moisture rate? 18.4

Value lookup for Pre-test moisture rate; key = CC(C)(N)CO.CC(O)C(=O)O [Working example C113] 16.7

Field request: Pre-test moisture rate | item: CCCC[N+](CCCC)(CCCC)CCCC.[Br-] [Comparative example C6] 14.4

Param item = CC(O)C(=O)O.N (stereo not shown) [Working example C85] ; retrieve measured Pre-test moisture rate. 14.4

Look at this compound and give its reported Pre-test moisture rate. C[N+](C)(C)CC(O)CC(=O)O.O=C1O[C@H]([C@@H](O)CO)C([O-])=C1O [Working example C111] 9.7

----------
Entries annotated with measured Water retention property test 1 Rate of reduction in moisture
Assay: Water retention property test 1
Assay type: physicochemical
Details: 80 wt % aqueous solution; 24 hours at 40° C. and 25% RH
Method: A moisture rate after 24 hours was again measured (post-test moisture rate: B), followed by using the formula below to calculate a rate of reduction in moisture so as to evaluate the water retention property. • Pre-test moisture rate: A (%) • Post-test moisture rate: B (%)
// return numeric value only (unit: %, not printed)

Compound: CC(O)C(=O)O.N (stereo not shown)
Result value: 4.9

Any idea what Water retention property test 1 Rate of reduction in moisture was measured for NC(CO)(CO)CO.O=C1OC(C(O)CO)C(O)=C1O (stereo not shown) ? 3.0

Bench note: what Water retention property test 1 Rate of reduction in moisture did `CC(O)C(=O)[O-].OCC[N+](CCO)(CCO)CCO` show? 5.0

Requested field: Water retention property test 1 Rate of reduction in moisture. Item: `C[N+](C)(C)CCO.O=[PH2][O-]` 3.0

----------
assay: Water retention property test 1; assay type: physicochemical; conditions: 80 wt % aqueous solution; unsealed, 24 hours at 40° C. and 25% RH
This section presents compounds with their documented Post-test moisture rate values.
Field: numeric (%). Do not append units.

Reference set, count: 4
Compound: CC(CO)(CO)CO [Compound C53]
Value units: %
Post-test moisture rate: 19.1

Compound: C[N+](C)(C)CCO.O=C1OC(C(O)CO)C([O-])=C1O (stereo not drawn) [Compound C57]
Value units: %
Post-test moisture rate: 19.0

Compound: CC(O)C(=O)O.NCCCC(=O)O [Compound C60]
Value units: %
Post-test moisture rate: 18.1

Compound: CC(CO)(CO)CO [Compound C55]
Value units: %
Post-test moisture rate: 18.4

Which Post-test moisture rate is reported for this compound? CC(CO)(CO)CO [Compound C52] 18.6

// Post-test moisture rate lookup, key: CC(CO)(CO)CO [Compound C50] 19.1

----------
Pre-test moisture rate reference
experiment: Water retention property test 3 (long term); type: physicochemical; settings: 80 wt % aqueous solution; before the test
Give the number; % is assumed, so skip it.

Reference set (4 entries):
Molecule: CCCC[N+](CCCC)(CCCC)CCCC.[Br-]
Pre-test moisture rate / %: 20.0
//
Molecule: CC(O)C(=O)O.NC(CO)CO (centres unmarked)
Pre-test moisture rate / %: 20.0
//
Molecule: CCCCn1cc[n+](C)c1.F[B-](F)(F)F
Pre-test moisture rate / %: 20.0
//
Molecule: CS(=O)(=O)O.NC(CO)CO
Pre-test moisture rate / %: 20.0

Requested read-out: Pre-test moisture rate. Entry: `OCC(O)CO` 20.0

----------
Experiment: Water retention property test 2 (hydrates)
Format: physicochemical
Conditions: hydrate (anhydrides: aqueous solution at mono- to trihydrate concentration); before the test
Description: (2) Water retention property test 2 The water retention property of the hydrate of each compound was evaluated. […] A moisture rate after 24 hours was again measured (post-test moisture rate: B), followed by calculating a rate of reduction in moisture in a similar manner as above so as to evaluate the water retention property. […]
Pre-test moisture rate overview
Put your answer as a value accompanied by its unit after it.

Molecule: C[N+](C)(CCO)CC(O)CO.[Cl-] (stereo not drawn)
Pre-test moisture rate: 15.3%
//
Molecule: CC(O)C(=O)O.CCC(N)(CO)CO
Pre-test moisture rate: 14.7%
//
Molecule: CCC(N)(CO)CO.O=C(O)CC(O)(CC(=O)O)C(=O)O
Pre-test moisture rate: 10.4%
//
Molecule: CC(O)C(=O)[O-].C[N+](C)(C)CCO
Pre-test moisture rate: 8.5%
//
Molecule: CC(=O)OCC[N+](C)(C)C.O=C1O[C@H]([C@@H](O)CO)C([O-])=C1O
Pre-test moisture rate: 10.1%
//
Molecule: Br.NC(CO)CO
Pre-test moisture rate: 17.3%

Pre-test moisture rate lookup needed for `C[N+](C)(C)CCO.O=[PH2][O-]` , thanks. 9.6%

For `CS(=O)(=O)O.NC(CO)(CO)CO` , what is its reported Pre-test moisture rate? 14.2%

Recorded Pre-test moisture rate for C[N+](C)(C)CCO.O=C1OC(C(O)CO)C([O-])=C1O (stereo not drawn) , please? 11.4%

Entry under review: CCCCn1cc[n+](C)c1.F[B-](F)(F)F [Comparative example C7] . Reported Pre-test moisture rate? 7.4%

----------
# maps each entry to its Rate of reduction in moisture
test: Water retention property test 1; assay type: physicochemical; settings: 80 wt % aqueous solution; unsealed, 24 hours at 40° C. and 25% RH
# unit: % | format: bare number

Molecule: CC(CO)(CO)CO [Compound C54]
Rate of reduction in moisture (%): 5.8

Molecule: CC(=O)OCC[N+](C)(C)C.O=C1O[C@H]([C@@H](O)CO)C([O-])=C1O [Compound C59]
Rate of reduction in moisture (%): 3.5

Molecule: CCCC[N+](CCCC)(CCCC)CCCC.[Br-] [Compound A54, tetrabutylammonium bromide, reference compound]
Rate of reduction in moisture (%): 23.6

For CCC(O)C(O)C(O)C(O)CO (stereo not shown) [Compound C56] , what is its reported Rate of reduction in moisture? 1.7

----------
assay: Water retention property test 1; type: physicochemical; settings: 80 wt % aqueous solution; 24 hours at 40° C. and 25% RH
Below, each entry is listed alongside its reported Water retention property test 1 Rate of reduction in moisture.
# value in %; strip the unit string

// worked examples, Water retention property test 1 Rate of reduction in moisture included
Compound: C[N+](C)(C)CCO.O=C([O-])CCC(=O)O [Compound C31]
Value units: %
Result value: 5.5
//
Compound: CCC(C)(CO)CO [Compound C48]
Value units: %
Result value: 2.9
//
Compound: CC(O)C(=O)[O-].CCC(CO)(CO)[N+](CC(O)CO)(CC(O)CO)CC(O)CO (centres unmarked) [Compound C25]
Value units: %
Result value: 5.0
//
Compound: CC(O)C(=O)O.OCCNCCO [Compound C2]
Value units: %
Result value: 4.8
//
Compound: CS(=O)(=O)O.NC(CO)(CO)CO [Compound C22]
Value units: %
Result value: 1.2

Recorded Water retention property test 1 Rate of reduction in moisture for CC(=O)[O-].C[N+](C)(C)CCO [Compound C27] , please? 5.0

Query: Water retention property test 1 Rate of reduction in moisture; subject: CC(C)(C)CO [Compound C44] 4.7
